melting point by entry:

Consider the following illustrative entries.
{"columns": ["Smiles Notation", "melting point"],
 "data": [
  ["CNC(=O)Cn1nc(-c2ccc(OC)cc2)cc(C(=O)NC)c1=O", "250.1 to 250.8 °C"],
  ["CCC(=O)Nc1cc(-c2ccc(OC)cc2)nn(CC=Cc2ccc(Cl)cc2)c1=O", "147.7 to 148.6 °C"],
  ["COc1ccc(-c2cc(C(=O)O)c(=O)n(CC=Cc3ccc(Cl)cc3)n2)cc1Cl", "183 to 183.8 °C"],
  ["NC(=O)c1cc(-c2ccc(F)c(Cl)c2)nn(CC=Cc2ccccc2)c1=O", "211 to 212 °C"],
  ["CNC(=O)c1cc(-c2ccc(OC)cc2)nn(CC=C(C)C)c1=O", "103.6 to 104 °C"],
  ["CNC(=O)c1cc(-c2ccc(OC)cc2)nn(CC2CCCC2)c1=O", "107.4 to 107.8 °C"],
  ["COc1ccc(-c2cc(C(N)=O)c(=O)n(CC3CC3)n2)cc1", "182.2 to 183.3 °C"],
  ["CCCCOC(=O)Nc1cc(-c2ccc(OC)cc2)nn(CC=Cc2ccc(Cl)cc2)c1=O", "150.2 to 150.9 °C"]
]}

Query: Any idea what its melting point is? The compound is CNC(=O)c1cc(-c2ccc(OC)cc2)nn(CC#N)c1=O
Result: 153.4 to 154.9 °C

# credit: patent US6403586B1
